test system: MDA-MB-435; experiment: Cytotoxicity in human MDA-MB-435 cells assessed as reduction in cell viability incubated for 72 hrs by MTT assay; assay type: functional, cell-based; details: MDA-MB-435, 72 h
pIC50: −log10 of the molar value.
Quick rule for you: pIC50 at 5 or higher means Condition met, lower means Condition not met.

smiles-entry	measurement-target	group
CC1=C[C@@]2(C)C(=C(C)[C@H]3[C@@H]4C[C@H](C)C[C@H](C)[C@H]4[C@H]4Oc5ccc(cc5)C[C@@H]5C(=O)NC(=O)[C@H]5C(=O)[C@@H]2[C@@H]43)[C@H]1C	MDA-MB-435	Condition not met
CO[C@@H]1/C2=C(\O)[C@H]3[C@H]4[C@H](Oc5ccc(cc5)C[C@]1(O)NC2=O)[C@H]1[C@@H](C[C@H](C)C[C@@H]1C)[C@@H]4C(C)=C1[C@@H](C)C(C)=C[C@@]13C	MDA-MB-435	Condition met
CC1=C[C@@]2(C)C(=C(C)[C@H]3[C@@H]4C[C@H](C)C[C@H](C)[C@H]4[C@H]4Oc5ccc(cc5)C[C@]5(O)NC(=O)[C@]6(O[C@H]65)C(=O)[C@H]2[C@@H]43)[C@H]1C	MDA-MB-435	Condition not met

The measurements presented in this section are drawn from ChEMBL document CHEMBL4339247.
